- MEASURED_ON: hGLP-1R (Homo sapiens)
- Sequence (P43220 24-463): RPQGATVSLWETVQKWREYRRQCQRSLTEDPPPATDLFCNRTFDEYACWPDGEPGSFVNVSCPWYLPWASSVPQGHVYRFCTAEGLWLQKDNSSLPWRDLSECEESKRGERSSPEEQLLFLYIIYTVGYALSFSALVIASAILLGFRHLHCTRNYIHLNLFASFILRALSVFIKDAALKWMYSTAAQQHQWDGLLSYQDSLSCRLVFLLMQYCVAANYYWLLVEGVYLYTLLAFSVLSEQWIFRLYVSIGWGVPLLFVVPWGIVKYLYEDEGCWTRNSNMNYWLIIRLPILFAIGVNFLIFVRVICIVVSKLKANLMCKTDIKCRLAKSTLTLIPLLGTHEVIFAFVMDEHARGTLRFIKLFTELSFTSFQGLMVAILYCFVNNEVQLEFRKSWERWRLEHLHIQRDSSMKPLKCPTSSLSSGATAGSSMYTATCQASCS
- ASSAY_TEXT: Functional cAMP activation in the presence of 0.1% casein (no HSA);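 also: intracellular cAMP rise after 30 min at 37 °C read by HTRF, normalized between buffer only (0%) and maximal control ligand (100%), four-parameter variable-slope fit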
- Assay type: cell-based
- ASSAY_SETUP: in the presence of 0.1% casein (no HSA); geometric mean; read-out: Relative cAMP EC50, hGLP-1R
Starred links: 1 amine or outer side, 2 acyl side, 3 side chain; linkers in the order of their positions; H or OH if unused. Non-standard residues stand in square brackets, D forms with d. Groups on a side chain read outwards from the residue. No end group written: not given here. *: point of attachment. C20 diacid = O=C(O)CCCCCCCCCCCCCCCCCCC(=O)*; C18 diacid = O=C(O)CCCCCCCCCCCCCCCCC(=O)*; αMePhe(2-F) = C[C@](N)(Cc1ccccc1F)C(=O)O; γGlu = O=C(O)[C@H](CCC(=O)[*:2])N[*:1]; αMe4Pal = C[C@](N)(Cc1ccncc1)C(=O)O; αMeY = C[C@](N)(Cc1ccc(O)cc1)C(=O)O; 4Pal = N[C@@H](Cc1ccncc1)C(=O)O; αMeL = CC(C)C[C@](C)(N)C(=O)O; αMeS = C[C@](N)(CO)C(=O)O; Orn = NCCC[C@H](N)C(=O)O; AEEA = NCCOCCOCC(=O)O; Aib = CC(C)(N)C(=O)O
QUANTITY: EC50 (nM)

SUBSTANCE	TEST_VALUE
H-Y[Aib]QGTFTSD[4Pal]SQ[αMeL]LDKK([Glu-Glu-γGlu-C18 diacid])AQ[αMe4Pal]AFIEYLIAGGPSSGAPPPSGEEE-NH2 [Example 1090]	5.44
H-Y[Aib]QGTFTSD[4Pal]S[Orn][αMeL]LDKK([γGlu-γGlu-C18 diacid])AQ[αMe4Pal]AFIEYLIAGGESSGAPPPSGSEE-NH2 [Example 964]	2.67
H-Y[Aib]QGTFTSDFS[Orn][αMeL]LDKK([AEEA-γGlu-C18 diacid])AQ[Aib]AFIE[αMeY]LIEGGPSSGAPPPSGS-NH2 [Example 839]	0.469
H-Y[Aib]QGTFTSD[4Pal]SQ[αMeL]LD[Orn]K([γGlu-γGlu-C18 diacid])AQ[αMe4Pal]AFIEYLIAGGPSSGEPPPSGSE [Example 977]	1.1
H-Y[Aib]QGT[αMePhe(2-F)]TSD[4Pal][αMeS]I[αMeL]LD[Orn]K([AEEA-γGlu-γGlu-C18 diacid])AQ[αMe4Pal]EFI[dE][αMeY]LIEGGPSSGAPPPSGE-NH2 [Example 1176]	0.344
H-Y[Aib]QGTFTSD[4Pal]SQ[αMeL]LDKK([Glu-γGlu-C18 diacid])AQ[αMe4Pal]AFIEYLIE[Aib]GPSSGAPPPSGS-NH2 [Example 894]	2.01
H-Y[Aib]QGTFTSDFS[Orn][αMeL]LDKK([AEEA-γGlu-C18 diacid])AQ[Aib]AFIEWLLEGGSSSGAPPPSGH-NH2 [Example 270]	3.2
H-Y[Aib]QGTFTSD[4Pal]SQ[αMeL]LD[Orn]K([γGlu-γGlu-C18 diacid])AQ[αMe4Pal]AFIE[αMeY]LIA[Aib]GPSSGEPPPSGSEE-NH2 [Example 1094]	0.623
H-Y[Aib]QGTFTSD[4Pal]SQ[αMeL]LDKK([AEEA-γGlu-C18 diacid])AQ[αMe4Pal]AFIEYLLAGGPSSGAPPPSGSEE-NH2 [Example 1037]	5.95
Y[Aib]QGTFTSD[4Pal]SQ[αMeL]LD[Orn]K([γGlu-γGlu-C18 diacid])AQ[αMe4Pal]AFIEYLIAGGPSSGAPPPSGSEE-NH2 [Example 1031]	1.15
H-Y[Aib]QGT[αMePhe(2-F)]TSDYSKLLDKQAQK([AEEA-γGlu-C20 diacid])QFIEYLIEGGPSSGEPPPSEG-NH2 [Example 309]	0.808

src = patent US20240270821A1
